Data provenance is paper doi:10.1101/2020.07.28.224543v1.

Assign EC50 to each entry below.
- System: T. congolense IL3000
- Construct: IL3000
- Assay comment: microbe, parasite or virus in culture
- Set-up: Alamar blue (resazurin) viability assay of in vitro grown trypanosomes, fluorescence read-out
- Condition notes: Trypanosoma congolense, first series; parental strain IL3000
Return type: number; implicit unit nM.

Field request: EC50 | item: CC1(C)OB(O)c2cc(NC(=O)c3ccc(-n4cccn4)cc3Cl)ccc21
120

CC1(C)OB(O)c2cc(NC(=O)c3ccc(F)cc3C(F)(F)F)ccc21 , same question.
520

N=C(N)c1ccc(OCCCCCOc2ccc(C(=N)N)cc2)cc1 , same question.
1010

N=C(N)c1ccc(N=NNc2ccc(C(=N)N)cc2)cc1 [DA, diminazene aceturate] , same question.
270

CC[n+]1c(-c2ccccc2)c2cc(N/N=N/c3cccc(C(=N)N)c3)ccc2c2ccc(N)cc21 , same question.
9.8
